Tested on: ER Ca2+ store release in CF neutrophils
Assay: Fluo-4 ER Ca2+ release, CF neutrophils
Assay type: cell-based, human
Details: 3 h pre-treatment, 1 μM thapsigargin, no extracellular Ca2+, 3 donors in triplicate, curves non-CF vs CF p<0.0001
parameter.measured: IC50
# include the unit after the value

For reference, reported IC50 for VHDIVNMLIRG [ELD607, size-optimized SPLUNC1/α6 peptidomimetic] stands at 413 nM

====

Test system: Ca2+ influx in CF neutrophils
Test: Fluo-4 Ca2+ influx across the plasma membrane, CF neutrophils
Assay type: cell-based, human
Settings: CF; 3 h pre-treatment; 1 μM thapsigargin, extracellular Ca2+ (1.2 mM) returned; 3 donors in triplicate; vs non-CF p<0.0001
parameter.measured: pIC50
pIC50 here is simply -log10 of the concentration when that concentration is written in mol/L.

For reference, reported pIC50 for VHDIVNMLIRG [ELD607, size-optimized SPLUNC1/α6 peptidomimetic] stands at 6.31

The values you see were collected from paper PMC12998938.
